System: Alternaria solani
Assay: In vivo preventive test on Alternaria solani (tomato)
Settings: 500 ppm of active ingredient, evaluated 7 days after inoculation
Source text: One day after this treatment, the plants are inoculated with an aqueous spore suspension of Alternaria solani.
Can you tell me Efficacy for the items I'm about to list?
Give bare numbers, in %.

Past entries and their recorded results:
Cn1nc(C(F)F)c(C(=O)N(C[Si](C)(C)c2cccc(Cl)c2)C2CC2)c1F ... 100
Cn1nc(C(F)F)c(C(=O)NC2CCCCC2c2ccccc2)c1F (stereo not drawn) [Example 212] ... 89
CN(CCc1ccc(F)cc1)C(=O)c1c(C(F)F)nn(C)c1Cl ... 100
Cn1nc(C(F)F)c(C(=O)NCCc2cccc(Cl)c2)c1F ... 100
Cc1cc(Br)ccc1C(=O)C(C)(C)NC(=O)c1c(C(F)F)nn(C)c1F ... 95

Value sought for every listed compound: Efficacy.
1. CC(Cc1cccc(Oc2ccccc2)c1)NC(=O)c1c(C(F)F)nn(C)c1F (stereo not drawn)
2. CC(Cc1cccc(Oc2ccccc2)c1)NC(=O)c1c(C(F)F)nn(C)c1Cl (stereo not drawn)
3. Cn1nc(C(F)F)c(C(=O)NCC(C)(C)c2ccccc2Cl)c1F

95
100
90

Quick check: Efficacy of CC(Cc1cc(Cl)cc(Cl)c1)NC(=O)c1c(C(F)F)nn(C)c1F (stereo not drawn) ?
95

---

Can you tell me % Inhibition of fungal growth at 50 μM for the items I'm about to list?
Tested on: Fusarium graminearum
Assay: microbe, parasite or virus in culture
Assay type: cell-based
Conditions: 50 μM
Numbers only, in %.

Value sought for every listed compound: % Inhibition of fungal growth at 50 μM.
1. Cc1scc(CCNC(=O)c2c(C(F)F)nn(C)c2Cl)c1C
2. CN(CCc1ccc(C(C)(C)C)cc1)C(=O)c1c(C(F)F)nn(C)c1F
3. COC(c1ccc(Cl)cc1Cl)C1(NC(=O)c2c(C(F)F)nn(C)c2Cl)CC1 (stereo not drawn)

1: 97; 2: 80; 3: 100

---

Can you tell me logP for the items I'm about to list?
Experiment: logP by HPLC on reversed-phase column (C 18), EEC Directive 79/831 Annex V.A8
Type: physicochemical
Numbers only.

Cn1nc(C(F)F)c(C(=O)NCCc2c(F)c(F)nc(F)c2F)c1F ... 2.44

Value sought for every listed compound: logP.
1. CC(C)N(CCc1ccccn1)C(=O)c1c(C(F)F)nn(C)c1F
2. Cn1nc(C(F)F)c(C(=O)NCC(C)(C)c2cc(Cl)ccc2Cl)c1F
3. Cn1nc(C(F)F)c(C(=O)N(CCc2ccccn2)C2CCCC2)c1Cl
4. CC(CNC(=O)c1c(C(F)F)nn(C)c1Cl)c1cccc(Cl)c1 (stereo not drawn)

[0.85, 3.68, 1.40, 3.21]

Value sought for every listed compound: logP.
1. Cn1nc(C(F)F)c(C(=O)N(CCc2ccccc2)C2CCCC2)c1Cl
2. CN(CCc1ccccn1)C(=O)c1c(C(F)F)nn(C)c1F
3. Cn1nc(C(F)F)c(C(=O)NCC(C)(C)c2cc(Cl)cc(Cl)c2)c1Cl
4. Cn1nc(C(F)F)c(C(=O)N(C2CC2)C2CCCCC2c2ccc(Cl)cc2Cl)c1F (stereo not drawn)

1: 3.89; 2: 1.47; 3: 4.01; 4: 5.05

---

Test system: Puccinia triticina
Experiment: In vivo preventive test on Puccinia triticina (wheat)
Settings: dose 500 ppm of active ingredient, evaluated 8 days after inoculation
QUANTITY KIND: Efficacy (%)
One number for each entry, in %.

Past entries and their recorded results:
CC(Cc1cc(Cl)ccc1Cl)NC(=O)c1c(C(F)F)nn(C)c1Cl (stereo not shown) ... 70
CC(Cc1c(F)cccc1Cl)N(C(=O)c1c(C(F)F)nn(C)c1F)C1CC1 (stereo not shown) ... 70
CN(C[Si](C)(C)c1ccccc1)C(=O)c1c(C(F)F)nn(C)c1F ... 95

// below: Efficacy requested for another compound
Quick check: Efficacy of "Cn1nc(C(F)F)c(C(=O)N(C[Si](C)(C)c2cc(Cl)cc(Cl)c2)C2CC2)c1F" ?
100

---

Can you tell me logP for the items I'm about to list?
Assay: logP by HPLC on reversed-phase column (C 18), EEC Directive 79/831 Annex V.A8
Type: physicochemical
Procedure: In table 1, the logP values were determined in accordance with EEC Directive 79/831 Annex V.A8 by HPLC (High Performance Liquid Chromatography) on a reversed-phase column (C 18), using the method described below: Temperature: 40° C.; […]
Numbers only.

Past entries and their recorded results:
CN(CCc1cc(Cl)ccc1Cl)C(=O)c1c(C(F)F)nn(C)c1F ... 3.17
Cn1nc(C(F)F)c(C(=O)N(C2CC2)C2CCCC2c2ccccc2Cl)c1F (stereo not drawn) ... 4.31
CC(C)N(CCc1ccncc1)C(=O)c1c(C(F)F)nn(C)c1Cl ... 0.98

Value sought for every listed compound: logP.
1. CC(CNC(=O)c1c(C(F)F)nn(C)c1Cl)c1cc(Cl)cc(Cl)c1 (stereo not drawn)
2. CC(CN(C(=O)c1c(C(F)F)nn(C)c1F)C1CC1)c1ccccc1 (stereo not drawn)
3. Cn1nc(C(F)F)c(C(=O)NC2CC2c2ccccc2C(F)(F)F)c1Cl (stereo not drawn)
4. Cn1nc(C(F)F)c(C(=O)NC[Si](C)(C)c2cccc(Cl)c2)c1F
5. Cn1nc(C(F)F)c(C(=O)N(CC(F)(F)c2ccc(Cl)cc2Cl)C2CC2)c1F
6. Cn1nc(C(F)F)c(C(=O)NCCc2ccc(Oc3ccccc3)cc2)c1F
7. Cn1nc(C(F)F)c(C(=O)NC(C)(C)C(=O)c2ncc(C(F)(F)F)cc2Cl)c1Cl

1. 3.73
2. 3.17
3. 3.15
4. 3.55
5. 3.94
6. 3.41
7. 3.39

Value sought for every listed compound: logP.
1. Cn1nc(C(F)F)c(C(=O)NCCc2c(Cl)cccc2Cl)c1F
2. Cn1nc(C(F)F)c(C(=O)N(C[Si](C)(C)c2ccc(Cl)cc2Cl)C2CC2)c1F
3. CCN(CCc1ccc(Cl)cc1)C(=O)c1c(C(F)F)nn(C)c1F
4. Cn1nc(C(F)F)c(C(=O)NCCc2ccc(Oc3ccccc3)cc2)c1Cl
5. Cc1scc(CCNC(=O)c2c(C(F)F)nn(C)c2Cl)c1C
6. CC(Cc1cc(Cl)ccc1Cl)NC(=O)c1c(C(F)F)nn(C)c1F (stereo not drawn)

[3.00, 4.78, 3.19, 3.60, 3.02, 3.37]

Value sought for every listed compound: logP.
1. CC(Cc1ccccc1F)N(C(=O)c1c(C(F)F)nn(C)c1Cl)C1CC1 (stereo not drawn)
2. Cc1cccnc1CC(NC(=O)c1c(C(F)F)nn(C)c1F)C(F)(F)F (stereo not drawn)

1. 3.52
2. 1.52

---

Can you tell me pest or weed control at 100 ppm for the items I'm about to list?
Test system: Botrytis cinerea
Assay: In vivo preventive test on Botrytis cinerea (beans)
Settings: Botrytis cinerea, 48 h, preventive, beans, 100 ppm of active ingredient, lesion size 2 days after inoculation; read-out: Efficacy
Could you write the number and then its unit?

CC(Cc1ncc(C(F)(F)F)cc1Cl)N(C(=O)c1c(C(F)F)nn(C)c1F)C1CC1 (stereo not shown) ... 98%
Cn1cc(C(=O)NCCc2ccc(Cl)cc2Cl)c(C(F)F)n1 [compound CMP3, reference compound] ... 0%
CC(Cc1ncc(C(F)(F)F)cc1Cl)NC(=O)c1c(C(F)F)nn(C)c1F (stereo not shown) ... 96%

Quick check: pest or weed control at 100 ppm of COC(c1ccc(Cl)cc1Cl)C(C)NC(=O)c1c(C(F)F)nn(C)c1F (stereo not shown) ?
99%

---

Tested on: aflatoxines production
Test: microbe, parasite or virus in culture
Type: cell-based, Aspergillus parasiticus
Conditions: 50 μM
QUANTITY KIND: % Inhibition of Aflatoxin at 50 μM (%)
Give bare numbers, in %.

Past entries and their recorded results:
CN(C[Si](C)(C)c1ccccc1)C(=O)c1c(C(F)F)nn(C)c1F [Example 230] ... 100
Cn1nc(C(F)F)c(C(=O)NCCc2c(Cl)cccc2Cl)c1Cl [Example 118] ... 100
Cn1nc(C(F)F)c(C(=O)NC[Si](C)(C)c2ccccc2Cl)c1F [Example 233] ... 88

Value sought for every listed compound: % Inhibition of Aflatoxin at 50 μM.
1. Cn1nc(C(F)F)c(C(=O)N(CCc2ccccc2)C2CC2)c1F [Example 11]
2. Cn1nc(C(F)F)c(C(=O)N(C2CC2)C2CCCC2c2ccccc2Cl)c1F (stereo not drawn) [Example 210]
3. Cn1nc(C(F)F)c(C(=O)NCCc2ccc(Oc3ccccc3)cc2)c1F [Example 152]
4. CC(CNC(=O)c1c(C(F)F)nn(C)c1F)c1cc(Cl)cc(Cl)c1 (stereo not drawn) [Example 111]
5. Cn1nc(C(F)F)c(C(=O)NC2CC2c2ccccc2C(F)(F)F)c1F (stereo not drawn) [Example 225]
6. Cn1nc(C(F)F)c(C(=O)NC[Si](C)(C)c2ccccc2)c1Cl [Example 227]
7. CC(CNC(=O)c1c(C(F)F)nn(C)c1F)c1cccc(C(F)(F)F)c1 (stereo not drawn) [Example 126]
8. CC(Cc1ccccc1F)N(C(=O)c1c(C(F)F)nn(C)c1F)C1CC1 (stereo not drawn) [Example 19]

1. 100
2. 100
3. 100
4. 100
5. 97
6. 87
7. 100
8. 100

Value sought for every listed compound: % Inhibition of Aflatoxin at 50 μM.
1. Cn1nc(C(F)F)c(C(=O)NCCc2ccccc2Cl)c1Cl [Example 34]
2. CC(CNC(=O)c1c(C(F)F)nn(C)c1F)c1cccc(Cl)c1 (stereo not drawn) [Example 51]
3. Cn1nc(C(F)F)c(C(=O)NC[Si](C)(C)c2cc(Cl)cc(Cl)c2)c1F [Example 244]

1: 100; 2: 100; 3: 100
